biological target: T1, Recombinant Human FGFR2 alpha (IIIc) Fc Chimera Protein, CF (R&D systems, 712-FR-050) (human, UniProt P21802 22-377); assay: ELISA on plate-bound FGFR2-Fc
T1 construct: bought; not shown: Fc part of the chimera
T1 sequence (P21802 22-377, change not shown): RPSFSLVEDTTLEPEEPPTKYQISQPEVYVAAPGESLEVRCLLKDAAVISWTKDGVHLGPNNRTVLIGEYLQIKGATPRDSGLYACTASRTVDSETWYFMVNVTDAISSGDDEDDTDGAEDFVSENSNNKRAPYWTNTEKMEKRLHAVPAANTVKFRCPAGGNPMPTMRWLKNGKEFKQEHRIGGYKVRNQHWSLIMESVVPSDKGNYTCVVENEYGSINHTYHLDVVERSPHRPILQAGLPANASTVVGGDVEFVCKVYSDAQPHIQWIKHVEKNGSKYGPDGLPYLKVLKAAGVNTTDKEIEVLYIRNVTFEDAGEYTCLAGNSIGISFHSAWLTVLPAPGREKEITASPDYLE
Bridge positions count the residues as written; N and C are the ends. Ends that are not written are not given here. COCH2 = acetyl group that carries the bridge
Provide the reported ELISA luminescence signal at 10 nmol/L peptide, relative to SEQ ID NO: 47 (=1) of each item.

Exercise: Look at this binder and give its reported ELISA luminescence signal at 10 nmol/L peptide, relative to SEQ ID NO: 47 (=1). KCPQNFANPVQWRYFQHYKN (thioether ring (C)-(K(acetyl))) [cyclic peptide SEQ ID NO: 58]
Solution: 0.5 to 0.7 ratio

Exercise: Look at this binder and give its reported ELISA luminescence signal at 10 nmol/L peptide, relative to SEQ ID NO: 47 (=1). YCEENYLDPQQYQYFIYFK(COCH2)Y (thioether 2-19 (inferred)) [cyclic peptide SEQ ID NO: 245]
Solution: ≥ 0.7 ratio

Exercise: Look at this binder and give its reported ELISA luminescence signal at 10 nmol/L peptide, relative to SEQ ID NO: 47 (=1). KCPQNFINPVQWRAFQHYKN (not fully specified; thioether ring (C)-(K(acetyl))) [cyclic peptide SEQ ID NO: 64]
Solution: 0.5 to 0.7 ratio

Exercise: Look at this binder and give its reported ELISA luminescence signal at 10 nmol/L peptide, relative to SEQ ID NO: 47 (=1). YCEENYRDPEQYQYFIYFK(COCH2)Y (thioether 2-19 (inferred)) [cyclic peptide SEQ ID NO: 205]
Solution: ≥ 0.7 ratio
